system: SEM cells; assay: cell viability relative to DMSO control; higher = less cytotoxic; conditions: HPLM + 10% dialyzed FBS; 48 h; 15.4 µM
Quick list: cell viability per entry.
# number only, unit % dropped from output

Below: 2 compounds and their reported cell viability.
{"columns": ["COMPOUND", "VALUE"],
 "data": [
  ["CCOC(=O)N1CCN(/[N+]([O-])=N/Oc2cc(O/N=[N+](\\[O-])N3CCN(C(=O)OCC)CC3)c([N+](=O)[O-])cc2[N+](=O)[O-])CC1", 117],
  ["Cc1cc(Nc2ncc3c(n2)N(C)C(=O)N(c2cc(NC(=O)c4cccc(C(F)(F)F)c4)ccc2C)C3)n(C)n1", 5.81]
]}

Give cell viability; test system SEM cells; compound CCC(C)CCCCC(=O)N[C@@H](CCN)C(=O)NC(C(=O)N[C@H](CCN)C(=O)N[C@@H]1CCNC(=O)C([C@@H](C)O)NC(=O)[C@@H](CCN)NC(=O)[C@@H](CCN)NC(=O)[C@@H](CC(C)C)NC(=O)[C@H](Cc2ccccc2)NC(=O)[C@H](CCN)NC1=O)[C@@H](C)O (stereo not given in full) 110

Give cell viability; test system SEM cells; compound "CC[C@H]1OC(=O)[C@H](C)[C@@H](O[C@H]2C[C@@](C)(OC)[C@@H](O)[C@H](C)O2)[C@H](C)[C@@H](O[C@@H]2O[C@H](C)C[C@H](N(C)C)[C@H]2O)[C@](C)(OC)C[C@@H](C)C(=O)[C@H](C)[C@@H](O)[C@]1(C)O" 92.7

Give cell viability; test system SEM cells; compound "Cc1ccc(Nc2cc(-c3cccc(N4C(=O)c5ccccc5C4=O)c3)ncn2)cc1N[S+](C)(=O)[O-]" 123

----------
test system: SEM cells; experiment: cell viability relative to DMSO control; higher = less cytotoxic; conditions: HPLM + 10% dialyzed FBS; 48 h; 0.19 µM
MEASURED_PARAMETER: cell viability (%)
# number only, unit % dropped from output

{"columns": ["COMPOUND", "cell viability [%]"],
 "data": [
  ["CN1CC[C@H]([C@@H](O)C1)C2=C(O)C=C(O)C3=C2O\\C(=C/C3=O)C4=CC=CC=C4Cl", 131],
  ["C=CC(=O)Nc1cc2c(Nc3ccc(F)c(Cl)c3)ncnc2cc1C#CC(C)(C)N1CCN(C)CC1", 104],
  ["N[S+](=O)([O-])c1ccc(Nc2nc(OCC3CCCCC3)c3[nH]cnc3n2)cc1", 115]
]}

Here's the next entry for you.
Give cell viability; test system SEM cells; compound "CNC[C@H](O)[C@@H](O)[C@H](O)[C@H](O)CO" 114

----------
test system: NOMO1; assay: cell viability relative to DMSO control; higher = less cytotoxic; conditions: RPMI 5 mM glucose + 10% FBS; 48 h; 5.12 µM
MEASURED_PARAMETER: cell viability (%)
# number only, unit % dropped from output

Below: 5 compounds and their reported cell viability.
{"columns": ["QUERY_SMILES", "cell viability / %"],
 "data": [
  ["CCCN[C@H]1CCc2nc(N)sc2C1", 96.7],
  ["OC(=O)\\C1=C\\N(C2CC2)C3=CC(=C(F)C=C3C1=O)N4CCNCC4", 90],
  ["COc1c(Cl)cc2c([nH]c3cnccc32)c1NC(=O)c1cccnc1C", 98.2],
  ["CN1C(=O)/C(=C(NC2=CC=C(I)C=C2F)\\C3=C1\\N=C/N(C[C@@H](O)CO)C3=O)F", 30.7],
  ["CC(=O)SC[C@@H](C)C(=O)N1CCC[C@H]1C(=O)N[C@@H](Cc1ccccc1)C(=O)O", 85.3]
]}

Here's the next entry for you.
Respond only with cell viability recorded for "C[C@@H]1CC[C@@]2(CC[C@]3(C)\C(=C/C[C@@H]4[C@@]5(C)CC[C@H](O)C(C)(C)[C@@H]5CC[C@@]34C)[C@@H]2[C@H]1C)C(O)=O" 102
